Cited source for all entries: PubChem BioAssay (Tox21)

test: qHTS assay to identify small molecule agonists or antagonists of the thyroid stimulating hormone receptor (TSHR) signaling pathway - wild type cell line counter screen (AID 1259384); details: HEK293 wild type, cAMP HTRF counter-screen; series mostly up to 92.4 µM
Records with an inconclusive call do not appear. The source made the active and inactive calls. The call rests on the fitted dose curve.
OBSERVATION_TYPE: cAMP activity change

Check out these entries, answers already filled in.
{"COMPOUND": "Cc1cc2cc3c(C)cc(=O)oc3c(C)c2o1", "cAMP activity change": "inactive"}
{"COMPOUND": "c1ccc2nccnc2c1", "cAMP activity change": "inactive"}
{"COMPOUND": "CCCCNc1ccc(C(=O)OCCN(C)C)cc1", "cAMP activity change": "inactive"}
{"COMPOUND": "OCCCCC(O)CO (stereo not drawn)", "cAMP activity change": "inactive"}
{"COMPOUND": "COP(=O)(OC)OC(c1ccc(Cl)cc1)P(=O)(OC)OC (stereo not drawn)", "cAMP activity change": "inactive"}
{"COMPOUND": "CCCCOC(=O)c1ccccc1", "cAMP activity change": "inactive"}
{"COMPOUND": "Cc1ccccc1C(=O)Nc1ccc(C(=O)N2CCCC(N(C)C)c3ccccc32)cc1 (stereo not drawn)", "cAMP activity change": "inactive"}

The record that follows has no cAMP activity change shown yet.
cAMP activity change for CCn1ccc(NS(=O)(=O)c2ccc(N)cc2)nc1=O is inactive

----------
Test: A CellTox Green Cytotoxicity Assay to monitor cytotoxicity in HepG2 cells - 8 hour (AID 1224890); further: nearly all actives have a fitted effect of over 45% in size
Settings: CellTox Green fluorescence; series mostly up to 76.8 µM
From the text: National Center for Advancing Translational Sciences [NCATS] NIH Chemical Genomics Center [NCGC] U.S. Environmental Protection Agency [EPA] National Institutes of Environmental Health Sciences [NIEHS] National Toxicology Program [NTP] Cell-based models are critical for drug discovery. […] Viable cells produce no appreciable increases in fluorescence. Therefore, the fluorescence signal produced by the binding interaction with dead cell DNA is proportional to cytotoxicity. […]
Inconclusive results are not listed. Activity calls are given as the source filed them. Calls come from the whole dose curve; as a rule, active = well fitted activation curve with a large enough effect in the repeat runs; inconclusive = weak or mixed curves; inactive = flat fitted curve, though single readings scatter.
OBSERVATION_TYPE: cytotoxicity increase

Check out these entries, answers already filled in.
{"COMPOUND": "NCCS", "RESULT": "inactive"}
{"COMPOUND": "BrCc1cccc(Oc2ccccc2)c1", "RESULT": "inactive"}
{"COMPOUND": "O=C(CCNNC(=O)c1ccncc1)NCc1ccccc1", "RESULT": "inactive"}
{"COMPOUND": "NCCN1CCOCC1", "RESULT": "inactive"}

cytotoxicity increase for CCCC/C=C\CCCCCCCCCC=O is inactive

cytotoxicity increase for CC1COc2ccccc2N1 (centres undefined) is inactive

cytotoxicity increase for CNC(=O)[C@H]1O[C@@H](n2cnc3c(NCc4cc(Cl)ccc4OCc4cc(C)no4)ncnc32)[C@H](O)[C@@H]1N is inactive

cytotoxicity increase for Nc1ncnc(Nc2ccccc2)n1 is inactive

cytotoxicity increase for CC1=CCC(C(C)C)=CC1 is inactive

cytotoxicity increase for C=C(C)C(=O)OCCOP(=O)(O)OCCOC(=O)C(=C)C is inactive

cytotoxicity increase for Cc1cc(C(C)(C)C)c(O)c(C)c1CC1=NCCN1 is inactive

cytotoxicity increase for Cc1ccc(C=O)cc1C is inactive

cytotoxicity increase for CCCCCCCCSCC is inactive

cytotoxicity increase for CC1=C(C(=O)O)N2C(=O)[C@@H](NC(=O)[C@H](N)c3ccc(O)cc3)[C@H]2SC1 is inactive
